- ASSAY OVERVIEW: Metabolic stability in liver microsome (mouse)
- Type: in vitro ADME
- MEASUREMENT SETUP: liver microsomes; mouse liver microsome 0.5 mg/mL, compound 1 μM, NADPH/UDPGA
MEASUREMENT NAME: half-life at 1 μM (h)
Write it as a number; the unit h goes unstated.

Problem: Identify the reported half-life at 1 μM for the following entry. `N#Cc1cc2n(CC(=O)Nc3ccc(F)cn3)c(=O)c3ccc(C(F)(F)F)nc3n2n1`
Solution: 2.75

Problem: Identify the reported half-life at 1 μM for the following entry. `CCc1cc2n(CC(=O)Nc3ccc(F)cn3)c(=O)c3ccc(C(F)(F)F)nc3n2n1`
Solution: 3.11

Problem: Identify the reported half-life at 1 μM for the following entry. `O=C(Cn1c(=O)c2ccc(C(F)(F)F)nc2n2nc(Br)cc12)Nc1ccc(F)cn1`
Solution: 6.82

Problem: Identify the reported half-life at 1 μM for the following entry. `O=C(Cn1c(=O)c2ccc(C(F)(F)F)nc2n2nccc12)Nc1ccc(F)cn1`
Solution: 568

* * *

For each record, write down the corresponding Tmax.
- ASSAY OVERVIEW: Pharmacokinetic assay in rats
- Assay type: in vivo
- MEASUREMENT SETUP: male, rat, po; SD rats, p.o. 5 mg/kg, plasma, 0.5% CMC-Na (1% Tween 80); read-out: Peak time tmax
Write it as a number; the unit h goes unstated.

Problem: Identify the reported Tmax for the following entry. `N#Cc1cnn2c3nc(C(F)(F)F)ccc3c(=O)n(CC(=O)Nc3ccc(F)cn3)c12`
Solution: 4

Problem: Identify the reported Tmax for the following entry. `O=C(Cn1c(=O)c2ccc(C(F)(F)F)nc2n2nc(Br)cc12)Nc1ccc(F)cn1`
Solution: 2

Problem: Identify the reported Tmax for the following entry. `CCc1cc2n(CC(=O)Nc3ccc(F)cn3)c(=O)c3ccc(C(F)(F)F)nc3n2n1`
Solution: 4

Problem: Identify the reported Tmax for the following entry. `N#Cc1cc2n(CC(=O)Nc3ccc(F)cn3)c(=O)c3ccc(C(F)(F)F)nc3n2n1`
Solution: 4

Problem: Identify the reported Tmax for the following entry. `O=C(Cn1c(=O)c2ccc(C(F)(F)F)nc2n2nccc12)Nc1ccc(F)cn1`
Solution: 2

* * *

- ASSAY OVERVIEW: Pharmacokinetic assay in Balb/C mice
- Type: in vivo
- MEASUREMENT SETUP: male, mouse, po, p.o. 5 mg/kg, plasma, 0.5% CMC-Na (1% Tween 80), read-out: Area under curve AUC0-t
MEASUREMENT NAME: AUC(0-t) (ng·h/mL)
Write it as a number; the unit ng·h/mL goes unstated.

Problem: Identify the reported AUC(0-t) for the following entry. O=C(Cn1c(=O)c2ccc(C(F)(F)F)nc2n2nccc12)Nc1ccc(F)cn1 [Example 78]
Solution: 5040

Problem: Identify the reported AUC(0-t) for the following entry. CC(C)(C)c1cc2n(CC(=O)Nc3ccc(F)cn3)c(=O)c3ccc(C(F)(F)F)nc3n2n1 [Example 30]
Solution: 10900

Problem: Identify the reported AUC(0-t) for the following entry. CCc1cc2n(CC(=O)Nc3ccc(F)cn3)c(=O)c3ccc(C(F)(F)F)nc3n2n1 [Example 34]
Solution: 7580

Problem: Identify the reported AUC(0-t) for the following entry. N#Cc1cc2n(CC(=O)Nc3ccc(F)cn3)c(=O)c3ccc(C(F)(F)F)nc3n2n1 [Example 68]
Solution: 10200

Problem: Identify the reported AUC(0-t) for the following entry. O=C(Cn1c(=O)c2ccc(C(F)(F)F)nc2n2nc(Br)cc12)Nc1ccc(F)cn1 [Example 61-A]
Solution: 30500
